Entries annotated with measured Selectivity hA3/hA2B
TGT: hA2B receptors expressed in CHO cells (Homo sapiens, UniProt P29275)
Construct: expressed in transfected cells; host or cells: CHO cells
Sequence (P29275 1-332): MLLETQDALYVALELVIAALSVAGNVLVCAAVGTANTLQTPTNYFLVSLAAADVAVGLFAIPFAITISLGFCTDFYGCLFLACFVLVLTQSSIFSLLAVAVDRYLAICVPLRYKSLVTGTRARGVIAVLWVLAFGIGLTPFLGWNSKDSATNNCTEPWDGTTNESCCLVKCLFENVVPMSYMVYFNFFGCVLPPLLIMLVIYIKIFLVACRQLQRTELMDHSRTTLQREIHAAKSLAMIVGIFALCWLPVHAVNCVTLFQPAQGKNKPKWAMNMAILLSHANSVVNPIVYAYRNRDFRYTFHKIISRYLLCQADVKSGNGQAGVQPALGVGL
EXPERIMENT_SUMMARY: cAMP assay hA2B CHO cells
Assay type: cell-based
CONDITION_DESCRIPTION: ratio hA3 IC50 / hA2B EC50
REPORTED_PROPERTY: Selectivity hA3/hA2B

1. CCNC(=O)[C@H]1O[C@@H](n2cnc3c(NNC(=O)c4sccc4C)nc(Cl)nc32)[C@H](O)[C@@H]1O [Compound 23b] | >2.94
2. CCNC(=O)[C@H]1O[C@@H](n2cnc3c(NNC(=O)c4ccc(C)s4)ncnc32)[C@H](O)[C@@H]1O [Compound 16b] | >3.66
3. CCNC(=O)[C@H]1O[C@@H](n2cnc3c(NNC(=O)c4ccco4)ncnc32)[C@H](O)[C@@H]1O [Compound 12b] | >12.19
4. CCNC(=O)[C@H]1O[C@@H](n2cnc3c(NNC(=O)c4ccsc4)nc(Cl)nc32)[C@H](O)[C@@H]1O [Compound 21b] | >2.22
5. CCNC(=O)[C@H]1O[C@@H](n2cnc3c(NNC(=O)c4cccs4)nc(Cl)nc32)[C@H](O)[C@@H]1O [Compound 22b] | >5.00
6. CCNC(=O)[C@H]1O[C@@H](n2cnc3c(NNC(=O)c4ccc(C)o4)ncnc32)[C@H](O)[C@@H]1O [Compound 14b] | >4.40
7. CCNC(=O)[C@H]1O[C@@H](n2cnc3c(NNC(=O)c4ccc[nH]4)nc(Cl)nc32)[C@H](O)[C@@H]1O [Compound 24b] | >2.78
